Parameter TGA percentage reversal, NOV1401/anti NOV1401 ratio 1/3 (n/n): see the listing below.
- target desc: NOV1401; note: test concentration or dose not given here
- Sequence (VH, as listed by the source, chain 1 of 2): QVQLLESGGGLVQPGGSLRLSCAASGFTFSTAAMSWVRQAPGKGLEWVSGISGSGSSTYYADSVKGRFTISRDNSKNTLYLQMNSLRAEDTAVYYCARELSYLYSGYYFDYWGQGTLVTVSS
- Sequence (VL, as listed by the source, chain 2 of 2): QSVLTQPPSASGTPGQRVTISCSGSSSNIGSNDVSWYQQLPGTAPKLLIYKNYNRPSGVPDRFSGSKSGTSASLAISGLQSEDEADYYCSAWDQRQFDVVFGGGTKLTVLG
- protocol: cell-based or functional assay
Write the answer as a number in %, unit excluded.

>>> obs_value("IDT6 (Fab, V domains shown, Fab with a lambda light chain; also called anti-NOV1401 Fab IDT6) VH: QVQLVQSGAEVKKPGESLKISCKGSGYSFTNYWIGWVRQMPGKGLEWMGIIFPGVSYTKYSPSFQGQVTISADKSISTAYLQWSSLKASDTAMYYCARGSDQTLRGSRAMDYWGQGTLVTVSS VL: QSALTQPASVSGSPGQSITISCTGTSSDVGISNYVSWYQQHPGKAPKLMIYEVSNRPSGVSNRFSGSKSGNTASLTISGLQAEDEADYYCQSYTSLNYVFGGGTKLTVLG")
41

Read the next record carefully.
# TGA percentage reversal, NOV1401/anti NOV1401 ratio 1/3 (n/n) of IDT10 (Fab, V domains shown, Fab; also called anti-NOV1401 Fab IDT10) VH: QVQLVQSGAEVKKPGASVKVSCKASGYTFTNYYVHWVRQAPGQGLEWMGWINPYSGNTNYAQKFQGRVTMTRDTSISTAYMELSRLRSEDTAVYYCARGASSIRMSYYLDVWGQGTLVTVSS VL: DIQMTQSPSSLSASVGDRVTITCRASQSISNYLNWYQQKPGKAPKLLIYAASNLQSGVPSRFSGSGSGTDFTLTISSLQPEDFATYYCFQYTHSPATFGQGTKVEIKR = 45
